target: Jak2 (UniProt O60674); test: phosphorylation enrichment, bacterial display (enrichment ratio); higher = better substrate or ligand; peptides without Tyr show the background;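 further: 11-residue human phosphosite peptides and single-mutation variants displayed on the E. coli surface, counted by deep sequencing, each peptide's frequency after selection divided by its frequency in the unselected input library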;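 further: frequency after pTyr selection over input frequency; kinase dosed for 20-30% of maximal phosphorylation in three min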
Sequence (O60674 whole entry, looked up): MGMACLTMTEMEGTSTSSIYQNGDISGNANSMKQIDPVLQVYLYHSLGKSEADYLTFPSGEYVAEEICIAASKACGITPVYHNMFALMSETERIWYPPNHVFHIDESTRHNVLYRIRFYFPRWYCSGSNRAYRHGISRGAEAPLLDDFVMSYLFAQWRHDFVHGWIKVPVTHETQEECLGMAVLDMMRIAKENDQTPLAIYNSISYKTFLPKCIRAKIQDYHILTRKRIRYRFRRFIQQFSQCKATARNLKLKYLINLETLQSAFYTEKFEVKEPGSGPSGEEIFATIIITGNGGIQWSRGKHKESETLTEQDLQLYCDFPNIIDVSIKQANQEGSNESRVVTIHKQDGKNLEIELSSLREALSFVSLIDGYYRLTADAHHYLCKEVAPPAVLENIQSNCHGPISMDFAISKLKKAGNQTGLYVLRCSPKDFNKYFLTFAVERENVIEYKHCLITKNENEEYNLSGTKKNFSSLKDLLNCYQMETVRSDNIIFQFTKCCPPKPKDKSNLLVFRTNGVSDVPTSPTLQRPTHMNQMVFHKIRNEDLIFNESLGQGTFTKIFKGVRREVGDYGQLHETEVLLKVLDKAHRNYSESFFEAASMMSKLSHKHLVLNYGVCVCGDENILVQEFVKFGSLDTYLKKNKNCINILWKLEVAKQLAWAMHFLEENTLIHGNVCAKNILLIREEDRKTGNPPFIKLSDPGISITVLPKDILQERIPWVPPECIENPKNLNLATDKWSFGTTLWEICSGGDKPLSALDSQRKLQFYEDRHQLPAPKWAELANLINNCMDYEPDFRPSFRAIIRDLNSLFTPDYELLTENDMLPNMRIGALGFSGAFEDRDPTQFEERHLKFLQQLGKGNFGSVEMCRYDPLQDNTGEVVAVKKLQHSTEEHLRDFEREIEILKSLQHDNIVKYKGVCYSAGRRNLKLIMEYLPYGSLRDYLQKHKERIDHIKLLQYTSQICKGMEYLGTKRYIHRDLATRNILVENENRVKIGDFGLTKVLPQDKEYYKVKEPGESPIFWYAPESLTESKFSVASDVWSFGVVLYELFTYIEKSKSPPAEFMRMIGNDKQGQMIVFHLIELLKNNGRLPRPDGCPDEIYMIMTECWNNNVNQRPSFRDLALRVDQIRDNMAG
# label = True if phosphorylation enrichment >= 0.6 else False

entry_sequence="PSSRDYKDNIK [PIGN_Y227_H229D]" assigned_label=True
entry_sequence="DVLEFCNSKKT [PAK1_Y131_Y131C]" assigned_label=True
entry_sequence="KQRKEYMHRWQ [IQGAP2_Y710_R714W]" assigned_label=True
entry_sequence="RAMPVYKKAEH [TP63_Y231]" assigned_label=False
entry_sequence="RWGQKYMTAVV [CYBA_Y72]" assigned_label=False

q: Check if phosphorylation enrichment >= 0.6 (inclusive). Item: TKFVAYIESQG [KDM4B_Y34_N29T_YF]
a: True

q: Check if phosphorylation enrichment >= 0.6 (inclusive). Item: AFLEDYFTSTE [SRC_Y522]
a: True
